# inhibition listing for each entry below
- tested target: Bcl-2-like protein 1 (Homo sapiens) (UniProt Q07817)
- Sequence (Q07817 whole entry, looked up): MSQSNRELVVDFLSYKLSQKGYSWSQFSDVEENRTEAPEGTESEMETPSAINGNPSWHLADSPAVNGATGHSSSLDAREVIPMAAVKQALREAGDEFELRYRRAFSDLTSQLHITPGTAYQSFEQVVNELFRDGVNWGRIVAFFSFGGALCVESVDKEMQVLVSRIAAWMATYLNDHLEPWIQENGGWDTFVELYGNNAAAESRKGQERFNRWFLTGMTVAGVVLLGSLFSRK
- assay overview: Bcl-xL/Bim BH3 interaction blockers – biochemical, fluorescence polarization, HTS, primary screen (AID 2129);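 further: 0% = DMSO wells and 100% = unlabeled Bim-BH3 peptide competitor; inhibitors lower millipolarization by displacing the labeled peptide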
- measurement conditions: GST-Bcl-xL / FITC-Bim BH3 peptide fluorescence polarization; at 10.9 µM; hits give high values
In all, about 320,000 compounds went through this assay and about 2,200 (0.69%) were called active. Shown is part of a subset that was picked to be rich in actives.

Here are 10 compounds together with their reported answers.
Cc1sc(NC(=O)c2ccc3ncsc3c2)c(C(N)=O)c1C : 4.75% (inactive)
Cn1nccc1/C=N\NC(=O)c1ccc(Cl)cc1 : 7.38% (inactive)
CNC(=O)c1cccc2nc3ccccc3nc12 : 8.33% (inactive)
CN(C(=O)COC(=O)c1nc(Cl)ccc1Cl)C1CCS(=O)(=O)C1 (stereo unspecified) : -2.39% (inactive)
CC1CCCN(C(=O)c2cc(-c3ccco3)nc3ccccc23)C1 (stereo unspecified) : 2.8% (inactive)
COc1ccc(NC(=O)CN(C)C(=O)c2cc(-c3ccc(C)o3)nc3ccccc23)cc1 : 1.46% (inactive)
COc1ccc(-c2cc(C(=O)N(C)Cc3ccccc3)c3ccccc3n2)cc1 : 4.34% (inactive)
CC(C)(C)OC(=O)NCCCC1=CC2=CC(=O)C(C)(OC(=O)c3ccco3)C(=O)C2=CO1 (stereo unspecified) : 62.9% (active)
CCN1CC=C2C(C#N)=C(N)C(C#N)(C#N)[C@H](c3ccoc3)[C@H]2C1 : 148% (active)
CN(CCOc1ccccc1)C(=O)c1cc(-c2ccco2)nc2ccccc12 : 30.5% (active)

Here is the next item to consider.
Which inhibition reading was recorded for the compound O=C1Nc2ccccc2/C1=C/c1ccnc2ccccc12 ? 2.91% (inactive)

Just for reference, PubChem BioAssay AID2129 is where these values come from.
